Listing of recorded growth by entry.
tested on: BT-549 breast; test: NCI-60 one-dose screen, 48 h (100 = growth as untreated, 0 = no growth, -100 = all killed); settings: 10 µM unless noted
About 83,000 compounds went through this panel and 20% of them were active in at least one assay; those are over-represented in the sample as a whole.
REPORTED PROPERTY: growth (%)

>>> meas_value("COc1ccc(-c2cc(-c3cn(-c4cccc(Cl)c4)nc3-c3ccc(OC)cc3)on2)cc1")
121
>>> meas_value("COCCn1cc(-c2csc(-c3c[nH]c4ccc(F)cc34)n2)c2cccnc21")
7.07
>>> meas_value("COc1ccc2c(c1)CC[C@@H]1[C@@H]2CC[C@]2(C)C3C(=CC(COC(C)=O)C4C(=O)N(c5ccc(Cl)cc5)C(=O)C43)C[C@@H]12 (some centres undefined)")
116
>>> meas_value("CCC(C)(C)c1ccc(Nc2ccc(Nc3ccc(C(C)(C)CC)cc3)cc2)cc1")
133

----------
tested on: SNB-75 CNS; experiment: NCI-60 one-dose screen, 48 h (100 = growth as untreated, 0 = no growth, -100 = all killed); settings: 10 µM unless noted
About 83,000 compounds went through this panel and 20% of them were active in at least one assay; those are over-represented in the sample as a whole.
REPORTED PROPERTY: growth (%)

>>> meas_value("COC12C=C/C(=C(/C(=O)OCc3csc(SC)n3)C(=O)CCCCCCCCC3(OC)C=C/C(=C(/C(=O)OCc4cnc(SC)s4)C(=O)CCCCCCCC1)O3)O2 (configuration not stated)")
98.3
>>> meas_value("CCCC(O)Cn1ncc(C(=O)OCC)c1NC(=O)NCc1cccc(C(F)(F)F)c1 (configuration not stated)")
101
>>> meas_value("O=[N+]([O-])c1ccccc1Nc1ccc2ccccc2c1")
62.9
>>> meas_value("COc1ccc(Nc2ncc(I)c(NCCCNC(=O)C3CCC3)n2)cc1")
39.4
>>> meas_value("Cc1nn(C)c2ncnc(N/N=C/c3cccc(O)c3O)c12")
38.6
>>> meas_value("O=C(O)c1cn(C2CC2)c2cc(N3CCN(C(=O)N4CCOCC4)CC3)c(F)cc2c1=O")
98.1
>>> meas_value("COCCOC(C)C(/C=N/NC(N)=S)=N/NC(N)=S (configuration not stated)")
120
>>> meas_value("O=C1C=C(SCCO)C(=O)c2ccccc21")
-83.9
>>> meas_value("CC(C)(Sc1cc(C(C)(C)C)c(O)c(C(C)(C)C)c1)Sc1cc(C(C)(C)C)c(OC(=O)CCC(=O)O)c(C(C)(C)C)c1")
94.2
>>> meas_value("O=C(/C=C/c1cccc(Oc2ccccc2)c1)c1ccc(Nc2nc(Nc3ccc(F)cc3)nc(Nc3ccc(Cl)cc3)n2)cc1")
92.5
>>> meas_value("N#CSc1c[nH]c2ccc(/C=C/C(=O)/C=C(O)/C=C/c3ccc4[nH]cc(SC#N)c4c3)cc12")
51.9
>>> meas_value("CCOC(=O)c1cnn(CC(C)O)c1NC(=O)NCc1ccccc1C(F)(F)F (configuration not stated)")
93.6
>>> meas_value("CN(C)CCCn1c2c(c3cnccc3c1=O)C(=O)c1ccccc1-2")
10.6
>>> meas_value("Clc1ccc(-c2nc(C(Cl)Cl)nc3cc(-c4ccccc4)nn23)cc1")
-13.1
>>> meas_value("O=C(C1=Cc2cc3ccccc3n2Cc2cnnn21)c1ccc(F)cc1")
86.2
>>> meas_value("N=C(N)c1ccc(OCCSCCOc2ccc(C(=N)N)cc2)cc1")
71.2
>>> meas_value("Cn1cc(-c2csc(-c3cn(CCCN4CCOCC4)c4ccc(F)cc34)n2)c2cccnc21")
87.1
